Biological target: T1, EsCas13d, nuclease-dead (Eubacterium siraeum, UniProt B0MS50, R295A;H300A;R849A;H854A)
T1 sequence: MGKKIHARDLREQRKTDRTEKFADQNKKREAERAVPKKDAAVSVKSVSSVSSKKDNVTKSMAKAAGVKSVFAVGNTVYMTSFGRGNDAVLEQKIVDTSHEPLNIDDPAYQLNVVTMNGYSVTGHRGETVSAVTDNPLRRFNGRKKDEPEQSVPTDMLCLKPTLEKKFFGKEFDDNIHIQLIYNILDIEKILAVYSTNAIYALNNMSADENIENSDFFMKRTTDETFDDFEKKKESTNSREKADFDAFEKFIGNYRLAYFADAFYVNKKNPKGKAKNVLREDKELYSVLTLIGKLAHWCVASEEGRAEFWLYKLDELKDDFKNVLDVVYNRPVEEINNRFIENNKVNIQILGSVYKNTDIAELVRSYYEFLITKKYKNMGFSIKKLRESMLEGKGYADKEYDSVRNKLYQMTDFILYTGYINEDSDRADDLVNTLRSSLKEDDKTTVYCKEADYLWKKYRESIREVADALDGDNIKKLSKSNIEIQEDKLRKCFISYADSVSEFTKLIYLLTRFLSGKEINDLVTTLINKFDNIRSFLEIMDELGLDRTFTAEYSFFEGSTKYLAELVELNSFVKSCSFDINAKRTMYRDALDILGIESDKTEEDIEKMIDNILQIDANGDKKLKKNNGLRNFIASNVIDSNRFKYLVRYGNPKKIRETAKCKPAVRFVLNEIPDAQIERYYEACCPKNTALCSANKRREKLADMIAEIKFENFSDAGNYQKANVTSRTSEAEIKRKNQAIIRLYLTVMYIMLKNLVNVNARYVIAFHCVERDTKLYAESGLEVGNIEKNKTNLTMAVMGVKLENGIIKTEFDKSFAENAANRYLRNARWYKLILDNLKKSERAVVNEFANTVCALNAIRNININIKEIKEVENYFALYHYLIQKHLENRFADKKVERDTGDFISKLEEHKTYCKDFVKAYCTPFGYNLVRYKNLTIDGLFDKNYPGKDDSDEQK
Assay: crRNA (strand 1, pre-loaded); Mg2+; 40 mM Tris-HCl pH 7.5, 150 mM NaCl, 6 mM MgCl2, 1 mM DTT, 0.1% Tween-20, 0.2 mg/ml BSA; 25 C; 10 min per concentration, then washed
Conditions: tags: His6-TwinStrep-SUMO cleaved; N-terminal SNAP kept (SNAP-Surface 488); label: 3' end held by stalled T7 RNA polymerase
measured parameter: Kd (nM)
Give a bare numeral; the unit nM is implied.

-- ask Kd for target 1 del14,del20 (mixed) RNA 1: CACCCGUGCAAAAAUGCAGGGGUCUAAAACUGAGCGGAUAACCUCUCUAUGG RNA 2: GGGAAUGGAUCCACAUCUACGAAUUCGUACCUAGAGGGUUAUCCGCUCACCGAGAUCGGAAGAGCACACGU ?
-- reply 72
